Value source: patent US20260070978A1

Overview of reported EC50 across a group of binders:
Target: T1, recombinant human CD19 (human, UniProt P15391 20-291, limits assumed, fluorescent label, kind and site not stated)
T1 construct: soluble labeled antigen titrated on yeast; sorting steps used CD19-Fc, so the labeled antigen may be the Fc fusion; also called labeled CD19; fluorescently tagged antigen
T1 sequence (looked up): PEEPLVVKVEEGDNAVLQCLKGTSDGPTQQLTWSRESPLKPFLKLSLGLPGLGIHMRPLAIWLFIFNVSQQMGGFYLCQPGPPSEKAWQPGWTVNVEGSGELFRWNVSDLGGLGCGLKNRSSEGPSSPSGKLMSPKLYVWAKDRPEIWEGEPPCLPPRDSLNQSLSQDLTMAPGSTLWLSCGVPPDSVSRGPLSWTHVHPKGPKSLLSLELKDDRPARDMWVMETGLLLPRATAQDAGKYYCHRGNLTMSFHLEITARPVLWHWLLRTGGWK
Test: flow cytometry of yeast-displayed scFv with decreasing amounts of labeled CD19

Below, 2 binders whose answers are already recorded.
binder="human anti-CD19 ScFv binder M19217-23 (scFv) EVQLVQSGAEVKKPGASVKVSCKASGYTFTGYYMHWVRQAPGQGLEWIGLINPSGGSTSYEQKFQGRVAMTRDTSTSTVYMELSSLRSEDTAVYYCARSDRGITATDAFDIWGQGTMVTVSSGGGGSGGGGSGGGGSQSVLTQPPSVSVAPGQTAKITCGGSDIGDKNVHWYQQKPGQAPVLVVYDDYDRPSGIPERFSGSNSGDAATLTISTVEVGDEADYFCQVWDGIGDPYWVFGGGTQLTVLG" reported_result="< 0.01 µg/mL"
binder="human anti-CD19 ScFv binder M19217-2 (scFv) EVQLVQSGAEVKKPGASVKVSCKASGYTFTSYYMHWVRQAPGQGFEWMGLINPSGSSTSYAQKFQGRVTMTRDTSTSTVYMELSNLRSEDTAVYYCARSDRGITATDAFDIWGQGTMVTVSSGGGGSGGGGSGGGGSQSVLTQPPSVPVAPGQTAKIICGGSDIGNKNVHWYQQKPGQAPVLVVYDDYDRPSGIPERFSGSNSGDAATLTISTVEVGDEADYFCQVWDGSGDPYWVFGGGTQLTVLG" reported_result="< 0.01 µg/mL"

Now examine the next entry.
Query: Fill in: EC50 of human anti-CD19 ScFv binder M19217-38 (scFv) EVQLVQSGAEVKRPGASVKVSCKASGYTFTSYYMHWVRQAPGRGLEWMGLINPSGGSTSYAQEFQGRVTMTRDMSTSTVYMELSSLRSEDTAVYYCARSDRGISATDAFDIWGQGTMVTVSSGGGGSGGGGSGGGGSQSVLTQPPSVSVAPGQMAKITCGGSDIGNKNVHWYQQKPGQAPVLVVYDDYNRPSGIPERFSGSNSGDAATLTISTVEVGDEADYFCQVWDGSGDPYWVFGGGTQLTDLG is ___
Result: < 0.01 µg/mL
